biological target: CB1 receptor (Rattus norvegicus (Rat), UniProt P20272); test: rCB1 competition-equilibrium binding with [3H]CP-55,940, rat brain membranes; conditions: rat brain membranes, [3H]CP-55,940; read-out: rCB1 Ki
pKi: −log10 of the molar value.
recorded_metric: pKi

# smiles_entry, censoring_operator, measured_number
measured = [
    ("CC1=CC[C@@H]2[C@@H](C1)c1c(O)cc(C3(C(=O)OCCCCBr)CCC3)cc1OC2(C)C", "=", 9.52),
    ("CCCCOC(=O)C(C)(C)c1cc(O)c2c(c1)OC(C)(C)[C@@H]1CCC(=O)C[C@@H]21", "=", 8.66),
    ("CC1=CC[C@@H]2[C@@H](C1)c1c(O)cc(CC(=O)O)cc1OC2(C)C", "<", 5.00),
    ("CCCCOC(=O)C(C)(C)c1cc(O)c2c(c1)OC(C)(C)[C@H]1CC=C(C)C[C@@H]21", "=", 9.22),
    ("CC1=CC[C@@H]2[C@@H](C1)c1c(O)cc(C(C)(C)C(=O)OCCCN=[N+]=[N-])cc1OC2(C)C", "=", 9.00),
    ("CCCCOC(=O)C(C)(C)c1cc(O)c2c(c1)OC(C)(C)[C@@H]1CC[C@H](O)C[C@@H]21", "=", 8.51),
]

----------
molecular target: mCB2 receptor (Mus musculus (Mouse)); experiment: mCB2 competition-equilibrium binding with [3H]CP-55,940, membranes of HEK293 cells expressing mCB2
recorded_metric: Ki

# compound, result
data = [
    ("CCCCCCC1(c2cc(O)c3c(c2)OC(C)(C)[C@@H]2CC=C(C)C[C@@H]32)CC(=O)O1 (stereo partly drawn) [Compound 1.23]", "40.7 nM"),
    ("CC1=CC[C@H]2[C@@H](C1)c1c(O)cc(C(C)(C)C(=O)O)cc1OC2(C)C [Compound 1.1]", "> 10000 nM"),
    ("CC1=CC[C@@H]2[C@@H](C1)c1c(O)cc(C(C)(C)C(=O)OCCCN3CCOCC3)cc1OC2(C)C [Compound 1.25]", "10.4 nM"),
]

----------
biological target: hCB2 receptor (Homo sapiens (Human)); test: hCB2 competition-equilibrium binding with [3H]CP-55,940, membranes of HEK293 cells expressing hCB2
pKi: −log10 of the molar value.
Reported pKi values for the following compounds.
recorded_metric: pKi

# compound, censoring_operator, measured_number
data = [
    ("CC1=CCC2[C@@H](C1)c1c(O)cc(C(C)(C)C(=O)OCCCCC#N)cc1OC2(C)C (stereo in doubt)", "=", 9.10),
    ("CC1=CC[C@@H]2[C@@H](C1)c1c(O)cc(C(C)(C)C(=O)OCCCN3CCOCC3)cc1OC2(C)C", "=", 8.06),
    ("CCCCCCC1(c2cc(O)c3c(c2)OC(C)(C)[C@@H]2CC=C(C)C[C@@H]32)CC(=O)O1 (stereo partly shown)", "=", 7.26),
    ("CC1=CC[C@H]2[C@@H](C1)c1c(O)cc(C(C)(C)C(=O)O)cc1OC2(C)C", "<", 5.00),
]

----------
target: UniProt P47936; experiment: mCB2 competition-equilibrium binding with [3H]CP-55,940, membranes of HEK293 cells expressing mCB2; details: HEK293 cells expressing mCB2, [3H]CP-55,940; read-out: mCB2 Ki
Mark yes (1) for Ki under 7 nM, no (0) if at or over.

# molecule, assigned_class
records = [
    ("CCCCOC(=O)C(C)(C)c1cc(O)c2c(c1)OC(C)(C)[C@@H]1CC[C@H](O)C[C@@H]21", "yes (1)"),
    ("CCOC(=O)C(C)(C)c1cc(O)c(-c2cc(C)cc(C)c2)c(O)c1", "no (0)"),
    ("CC1=CC[C@@H]2[C@@H](C1)c1c(O)cc(C(C)(C)C(=O)OCCCCn3ccnc3)cc1OC2(C)C", "no (0)"),
    ("CC(C)(C(=O)O)c1cc(O)c2c(c1)OC(C)(C)[C@@H]1CC[C@@H](O)C[C@@H]21", "no (0)"),
    ("CCCCOC(=O)Cc1cc(O)c2c(c1)OC(C)(C)[C@@H]1CC=C(C)C[C@@H]21", "no (0)"),
    ("CC1=CC[C@H]2[C@@H](C1)c1c(O)cc(C(C)(C)C(=O)OCCCCBr)cc1OC2(C)C", "yes (1)"),
    ("CCCCOC(=O)C(C)(C)c1cc(O)c2c(c1)OC(C)(C)[C@@H]1CC[C@@H](O)C[C@@H]21", "yes (1)"),
    ("CC1=CC[C@@H]2[C@@H](C1)c1c(O)cc(C(C)(C)C(=O)OCCCCN3CCOCC3)cc1OC2(C)C", "no (0)"),
    ("CCOC(=O)C(C)(C)c1cc(O)c(-c2cc(C)cc(C)c2)c(OC)c1", "no (0)"),
    ("CC(C)(C(=O)OCCCCn1ccnc1)c1cc(O)c2c(c1)OC(C)(C)[C@@H]1CC=C(CO)C[C@@H]21", "no (0)"),
    ("CC1=CC[C@@H]2[C@@H](C1)c1c(O)cc(C3(C(=O)O)CCC3)cc1OC2(C)C", "no (0)"),
    ("CCCCOC(=O)[C@H](C)c1cc(O)c2c(c1)OC(C)(C)[C@@H]1CC=C(C)C[C@@H]21", "yes (1)"),
    ("CC1=CC[C@@H]2[C@@H](C1)c1c(O)cc(C(C)C(=O)O)cc1OC2(C)C (stereo partly drawn)", "no (0)"),
    ("CCCCOC(=O)C(C)(C)c1cc(O)c2c(c1)OC(C)(C)[C@@H]1CC=C(CO)C[C@@H]21", "yes (1)"),
]

----------
target: CB1 receptor (Rattus norvegicus (Rat), UniProt P20272); test: rCB1 competition-equilibrium binding with [3H]CP-55,940, rat brain membranes; conditions: rat brain membranes, [3H]CP-55,940; read-out: rCB1 Ki
pKi: −log10 of the molar value.
Reported pKi values for the following compounds.

# smiles_entry, target_or_system, censoring_operator, pKi
rows = [
    ("CC1=CC[C@@H]2[C@@H](C1)c1c(O)cc(C(C)(C)C(=O)OCCCCN3CCOCC3)cc1OC2(C)C", "CB1 receptor (Rattus norvegicus (Rat), UniProt P20272)", "=", 7.47),
    ("CC1(C)Oc2cc(CC(=O)O)cc(O)c2[C@@H]2CC(=O)CC[C@H]21", "CB1 receptor (Rattus norvegicus (Rat), UniProt P20272)", "<", 5.00),
    ("CC1=CC[C@@H]2[C@@H](C1)c1c(O)cc(C(C)(C)C(=O)OCCCBr)cc1OC2(C)C", "CB1 receptor (Rattus norvegicus (Rat), UniProt P20272)", "=", 9.10),
    ("CCCCOC(=O)[C@H](C)c1cc(O)c2c(c1)OC(C)(C)[C@@H]1CC=C(C)C[C@@H]21", "CB1 receptor (Rattus norvegicus (Rat), UniProt P20272)", "=", 9.05),
]

----------
Reported pKi values for the following molecules.
molecular target: CB1 receptor (Rattus norvegicus (Rat)); experiment: rCB1 competition-equilibrium binding with [3H]CP-55,940, rat brain membranes; conditions: rat brain membranes, [3H]CP-55,940; read-out: rCB1 Ki
pKi: −log10 of the molar value.

# smiles_entry, pKi
rows = [
    ("CCCCOC(=O)C(C)(C)c1cc(O)c2c(c1)OC(C)(C)[C@@H]1CC[C@@H](CO)C[C@H]21", 8.62),
    ("CCCCOC(=O)C(C)(C)c1cc(O)c2c(c1)OC(C)(C)[C@@H]1CC=C(CO)C[C@@H]21", 9.22),
    ("CCOC(=O)C(C)(C)c1cc(O)c(-c2cccc(C#N)c2)c(O)c1", 5.44),
    ("CCOC(=O)C(C)(C)c1cc(O)c(-c2cc(Cl)cc(Cl)c2)c(OC)c1", 6.00),
]

----------
Reported log10(half-life at 200 μM) values for the following compounds.
experiment: Stability in plasma (half-life); type: in vitro ADME, rat or monkey; settings: method: 200 μM in plasma, 37°; species of plasma not given
recorded_metric: log10(half-life at 200 μM) (log10 of the value in min)

# compound, log10(half-life at 200 μM)
data = [
    ("CC1=CC[C@@H]2[C@@H](C1)c1c(O)cc(C3(C(=O)OCCCCC#N)CCC3)cc1OC2(C)C", 2.03),
    ("CC(C)(C(=O)OCCCCn1ccnc1)c1cc(O)c2c(c1)OC(C)(C)[C@@H]1CC=C(CO)C[C@@H]21", 2.08),
    ("CCCCOC(=O)[C@@H](C)c1cc(O)c2c(c1)OC(C)(C)[C@@H]1CC=C(C)C[C@@H]21", 0.78),
    ("CCCCOC(=O)C(C)(C)c1cc(O)c2c(c1)OC(C)(C)[C@@H]1CC[C@H](O)C[C@@H]21", 0.90),
    ("CCCCOC(=O)C(C)c1cc(O)c2c(c1)OC(C)(C)[C@@H]1CC=C(C)C[C@@H]21 (stereo partly drawn)", 0.48),
    ("CC1=CC[C@@H]2[C@@H](C1)c1c(O)cc(C(C)(C)C(=O)OCCCCN3CCOCC3)cc1OC2(C)C", 1.83),
]
